EXPERIMENTAL PROTOCOL: basal 3T3-L1 adipocyte mitochondrial potential changes, profiling panel, cell-based, JC-1 fluorescence, 3T3-L1 adipocytes, 24 h, 100 nL compound (AID 1168); also: test concentration not given here
PROTOCOL CONDITIONS: JC-1 mitochondrial fluorescence, higher = more signal, called active from +8 up or from −8 down
Class 1: z-score at least 0.2. Class 0: z-score below 0.2.

Kindly determine if z-score recorded for `COCCOC(=O)N1C(=O)[C@@]2(c3cc(C#CCC(C(=O)OC)C(=O)OC)ccc31)[C@H](c1ccc(O)cc1)N1[C@H](c3ccccc3)[C@H](c3ccccc3)OC(=O)[C@H]1[C@@H]2C(N)=O` is above or exactly 0.2.
0

Kindly determine if z-score recorded for `CC(C)N1C(=O)C[C@@](C(=O)NCc2ccccc2)(c2ccc([N+](=O)[O-])cc2)[C@H]1c1ccc(CO)cc1` is above or exactly 0.2.
1

Kindly determine if z-score recorded for `CC(C)NC(=O)[C@@H]1c2ccccc2C(=O)N(Cc2ccccc2)[C@H]1c1ccc(CO)cc1` is above or exactly 0.2.
0

Kindly determine if z-score recorded for `COc1cc(CO)ccc1OC(C)=O` is above or exactly 0.2.
1

Kindly determine if z-score recorded for `COC(=O)C[C@@H]1C[C@H](C)[C@]2(O1)C(=O)N(Cc1ccccc1)c1ccc(NC(C)=O)cc12` is above or exactly 0.2.
0

Kindly determine if z-score recorded for `[N-]=[N+]=NCc1ccccc1C[C@]1(C(=O)O)N=C(c2ccc(OCCCO)cc2)O[C@H]1c1ccccc1CN=[N+]=[N-]` is above or exactly 0.2.
0

Kindly determine if z-score recorded for `CC(C)C[C@@H]1NC(=O)[C@H]2C[C@@H](C(=O)NCCCCCCNC(=O)CS)[C@@H](c3cccc(OCCO)c3)N2C1=O` is above or exactly 0.2.
1

Kindly determine if z-score recorded for `COC(=O)[C@@]1(Cc2ccccc2)[C@H]2c3cc(C(=O)N(C)C)n(Cc4c(-c5ccccc5)noc4C)c3C[C@H]2CN1C(=O)c1ccccc1` is above or exactly 0.2.
0

====

EXPERIMENTAL PROTOCOL: small-molecule microarray binders of probe aDKK1, primary screen, biochemical, biotinylated probe, 635/667 nm fluorescence (AID 1099);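 also: score merges 667nm spot fluorescence with signal to noise across triplicate slides; reference of the scale not given here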
PROTOCOL CONDITIONS: higher = more signal
OBSERVABLE: composite z-score
Give the figure by itself; no unit, no explanation.

Entry `CCOC(=O)[C@H]1C/C=C/C[C@H](C(=O)OCC)C(=O)O[C@H]2[C@@H](OC)O[C@H](CO)[C@@H](OC(=O)Nc3ccc4c(c3)OCO4)[C@@H]2OC1=O` : reported composite z-score = ?
0.0005

Entry `COCC(=C=CC[C@H](O)c1ccc(OCCO)cc1)C[C@H](O)c1cc(Cl)cc(Cl)c1O` : reported composite z-score = ?
-0.268

Entry `O=C1O[C@H](c2ccccc2)[C@H](c2ccccc2)N2[C@H]1[C@@H](C(=O)O)[C@]1(C(=O)Nc3ccc(C#CC4=CCCCC4)cc31)[C@H]2c1ccc(OCCO)cc1` : reported composite z-score = ?
-0.211

Entry `Cc1ccc([C@H]2[C@H](C(=O)O)[C@H](Sc3ccccc3)[C@@H](C(C)C)N2S(=O)(=O)c2ccc(C)cc2)cc1` : reported composite z-score = ?
-0.403

Entry `CC(C)N1C(=O)C[C@@](C(=O)NCc2ccccc2)(c2ccc([N+](=O)[O-])cc2)[C@H]1c1ccc(CO)cc1` : reported composite z-score = ?
-0.0752

Entry C=CC[C@@]1(C(=O)NCC(O)CO)N=C(c2ccc(OCCCO)cc2)O[C@@H]1c1ccccc1N=[N+]=[N-] (some centres undefined) : reported composite z-score = ?
0.854

Entry `COCCOC(=O)N1C(=O)[C@@]2(c3cc(C#CCC(C(=O)OC)C(=O)OC)ccc31)[C@H](c1ccccc1OCCO)N1[C@H](c3ccccc3)[C@H](c3ccccc3)OC(=O)[C@H]1[C@@H]2C(=O)N1CCc2cc(OC)c(OC)cc2C1` : reported composite z-score = ?
0.176

Entry `[N-]=[N+]=NCc1ccccc1C[C@]1(C(=O)O)N=C(c2ccc(OCCCO)cc2)O[C@H]1c1ccccc1` : reported composite z-score = ?
0.181

Entry O=C1OCC=C[C@H]2OC34C=CCN(c5ccc6ccccc6c5)C(=O)[C@H]3N(CCCO)C(=O)[C@@H]4[C@@H]12 (some centres undefined) : reported composite z-score = ?
0.0114

Entry COC(=O)c1ccc(C(O)C2C=CC3C(=O)N(c4ccccc4)C(=O)C3N2Nc2ccc(C#N)cc2)o1 (centres undefined) : reported composite z-score = ?
0.51

Entry CCCCC(O)C1C=CC2C(=O)N(C3CCCCC3)C(=O)C2N1Nc1ccc(OC)cc1 (centres undefined) : reported composite z-score = ?
0.298

Entry O=C1OCCC=C[C@H]2OC34C=CCN(c5ccc6ccccc6c5)C(=O)[C@H]3N(CCCCCO)C(=O)[C@@H]4C12 (some centres undefined) : reported composite z-score = ?
0.0672

Entry `C=CC[C@@]1(C(=O)O)N=C(c2ccc(OCCCO)cc2)O[C@@H]1c1ccccc1N=[N+]=[N-]` : reported composite z-score = ?
1.08

Entry `COCCOC(=O)N1C(=O)[C@@]2(c3cc(C#CC4(O)CCCCCC4)ccc31)[C@H](C(=O)N1CCCCCCC1)[C@H]1C(=O)O[C@H](c3ccccc3)[C@H](c3ccccc3)N1[C@@H]2c1ccccc1OCCO` : reported composite z-score = ?
1.56

Entry COc1cc(C(O)C2C=CC3C(=O)N(c4ccccc4)C(=O)C3N2Nc2ccc(C#N)cc2)cc(OC)c1OC (centres undefined) : reported composite z-score = ?
1.45

Entry `COc1ccc(C#Cc2ccc3c(c2)[C@]2(C(=O)N3)[C@H](c3ccc(O)cc3)N3[C@H](c4ccccc4)[C@H](c4ccccc4)OC(=O)[C@H]3[C@@H]2C(=O)NC[C@H](O)c2ccccc2)cc1` : reported composite z-score = ?
0.155

Entry `CC(C)N1C(=O)c2ccccc2[C@@H](C(=O)NCCCN(C)C)[C@@H]1c1ccc(CO)cc1` : reported composite z-score = ?
0.744

Entry `C=CC[C@@H](OC(=O)Nc1ccc(OC)cc1)c1ccc(O)c2ccccc12` : reported composite z-score = ?
-0.0942

Entry `COCCOC(=O)N1C(=O)[C@@]2(c3cc(C#CCNC(N)=O)ccc31)[C@H](c1ccc(O)cc1)N1[C@H](c3ccccc3)[C@H](c3ccccc3)OC(=O)[C@H]1[C@@H]2C(=O)NC[C@H](O)c1ccccc1` : reported composite z-score = ?
0.614
